- Test Name: chemical genetic growth profiling, strain panel (AID 1159580);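 further: tested at 20 µM; growth read once vehicle control cultures reached saturation at 30 °C; 1 = growth at the plate median or of vehicle wells; lower values mean less growth of the strain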
- Run Parameters: S. cerevisiae deletion strains, growth OD, locus YHR142W, strain chs7, active compounds read low
The campaign covered roughly 5,500 compounds. About 2,000 (36%) were called active. Inconclusive results (about 18%) are left out. This is one part of the list.
normalized growth listing for selected molecules.
Answer field: number only, no words.

- Molecule: "COc1ccc2c(=O)ccoc2c1"
  normalized growth: 1.03
- Molecule: "CC(=O)OC1CCC2(C)C3CC(=O)C4(C)C(CC5OC6(CCC(C)CO6)[C@@H](C)C54)C3CC[C@H]2C1 (some centres not stated)"
  normalized growth: 0.955
- Molecule: "COc1cnc(NS(=O)(=O)c2ccc(N)cc2)nc1"
  normalized growth: 1
- Molecule: "CCOC([O-])=Nc1c[n+](N2CCOCC2)no1"
  normalized growth: 0.992
- Molecule: "OCc1c[nH]c2ccccc12"
  normalized growth: 0.948
- Molecule: "CC(=O)O[C@H]1CC[C@]2(C)C3CC(=O)[C@]4(C)C(C(C)=O)=CCC4C3CC[C@H]2C1 (some centres not stated)"
  normalized growth: 0.972
- Molecule: "CNC(Cc1c[nH]c2ccccc12)C(=O)O (configuration not stated)"
  normalized growth: 0.986
- Molecule: "CCOc1ccc(C(=O)c2cc(O)c(OC)c(OC)c2O)cc1"
  normalized growth: 0.931

Q. Request the reported normalized growth associated with CC(=O)O[C@H]1CC[C@]2(C)C3CC[C@@]4(C)C(CC5O[C@@]6(CCC(C)CO6)[C@@H](C)C54)C3CC[C@@H]2C1 (some centres not stated)
A. 1.03

Q. Request the reported normalized growth associated with `COc1c2ccoc2cc2oc(C)cc(=O)c12`
A. 0.971

Q. Request the reported normalized growth associated with `COc1c2occc2c(OC)c2c(=O)cc(C)oc12`
A. 0.949

Q. Request the reported normalized growth associated with `NC(N)=NC(N)=Nc1ccccc1`
A. 1.03

Q. Request the reported normalized growth associated with `c1ccc([C@H]2CN3CCSC3=N2)cc1`
A. 1.05

Q. Request the reported normalized growth associated with CC(=O)O[C@@H]1CC[C@]2(C)C3CC[C@]4(C)C(=O)CCC4C3CC[C@H]2C1 (some centres not stated)
A. 0.943

Q. Request the reported normalized growth associated with `COc1ccc(C(=O)c2ccc(O)cc2)c(O)c1O`
A. 0.987

Q. Request the reported normalized growth associated with `NCCNCCNCCN`
A. 0.961

====

- Test Name: chemical genetic growth profiling, strain panel (AID 1159580);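 further: tested at 20 µM; growth read once vehicle control cultures reached saturation at 30 °C; 1 = growth at the plate median or of vehicle wells; lower values mean less growth of the strain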
- Run Parameters: S. cerevisiae deletion strains, growth OD, locus YJL115W, strain asf1, active compounds read low
Among all 5,500 compounds or so, about 2,000 (36%) were called active. Not shown: some 18% with an inconclusive outcome. The list shows a part of the results.
normalized growth listing for selected compounds.

Known results for compounds:
- Entry Smiles: "CN(C)CCc1c[nH]c2ccc(C[C@H]3COC(=O)N3)cc12"
  Observed Measurement: "1.01 (inactive)"
- Entry Smiles: "Cc1c(NC(=O)c2cccnc2)c(=O)n(-c2ccccc2)n1C"
  Observed Measurement: "1 (inactive)"
- Entry Smiles: "O=C(O)c1cc(=O)c2cccc(O)c2[nH]1"
  Observed Measurement: "1.01 (inactive)"
- Entry Smiles: "O=C(O)c1cc(=O)c2c(Cl)cc(Cl)cc2[nH]1"
  Observed Measurement: "1.01 (inactive)"
- Entry Smiles: "CC1(C)C=Cc2cc3ccc(=O)oc3cc2O1"
  Observed Measurement: "0.921 (inactive)"

Lab note: next compound to report on.
Q. Request the reported normalized growth associated with `CNS(=O)(=O)Cc1ccc2[nH]cc(CCN(C)C)c2c1`
A. 1.03 (inactive)
